MEASURED_TARGET: human KAT II (hKAT II) enzyme (Homo sapiens, UniProt Q8N5Z0)
Sequence (Q8N5Z0 30-425): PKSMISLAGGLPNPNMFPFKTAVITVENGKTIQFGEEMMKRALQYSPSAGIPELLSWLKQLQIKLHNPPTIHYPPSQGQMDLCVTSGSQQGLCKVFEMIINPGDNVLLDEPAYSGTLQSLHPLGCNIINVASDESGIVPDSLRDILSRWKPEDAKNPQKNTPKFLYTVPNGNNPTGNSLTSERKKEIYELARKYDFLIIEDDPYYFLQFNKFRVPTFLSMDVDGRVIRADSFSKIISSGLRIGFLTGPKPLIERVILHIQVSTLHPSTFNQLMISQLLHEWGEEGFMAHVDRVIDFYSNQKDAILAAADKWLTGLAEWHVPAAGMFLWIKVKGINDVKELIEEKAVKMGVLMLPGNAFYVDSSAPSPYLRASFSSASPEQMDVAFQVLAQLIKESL
PROTOCOL_NOTES: KAT II Inhibition Spectra Assay
Type: biochemical
ASSAY_CONDITIONS: Table 6; hKAT II, decrease in OD370, 37° C., 15-20 h; read-out: KATII IC50
Structures can show the parent of a compound that is named as a salt.
MEASURED_ENDPOINT: pIC50
Reminder that pIC50 means the negative base-10 logarithm of the concentration expressed in mol/L.

Below, 2 compounds whose answers are already recorded.
Cc1ccc(Oc2ccc3c(c2)CC(N)C(=O)N3O)cc1 (centres unmarked) = 7.50
NC1Cc2cc(Oc3ccc(O)nc3)ccc2N(O)C1=O (centres unmarked) = 7.39

Entry N[C@H]1Cc2cc(Oc3ccc(F)cc3Cl)ccc2N(O)C1=O [Example 161, trifluoroacetate salt] ; pIC50 = 7.27

Entry CCc1cccc2c1N(O)C(=O)[C@@H](N)C2 ; pIC50 = 6.01

Entry NC1Cc2cc(Oc3cccc(F)c3)ccc2N(O)C1=O (centres unmarked) ; pIC50 = 7.31

Entry N[C@H]1Cc2cc(Cc3ccccc3)cnc2N(O)C1=O ; pIC50 = 7.55

Entry N[C@H]1Cc2cc(-c3ccccc3F)ccc2N(O)C1=O [Example 136, trifluoroacetate salt] ; pIC50 = 6.89

Entry NC1Cc2cc(F)cc(Oc3ccccc3)c2N(O)C1=O (centres unmarked) ; pIC50 = 7.19

Entry N[C@H]1Cc2c(ccc(C3CC3)c2F)N(O)C1=O ; pIC50 = 7.28

Entry N[C@H]1Cc2cc(Oc3ccccc3)cnc2N(O)C1=O ; pIC50 = 7.64

Entry N[C@H]1Cc2cc(-c3cccc(Cl)c3)ccc2N(O)C1=O [Example 143, trifluoroacetate salt] ; pIC50 = 7.02

----------
MEASURED_TARGET: human KAT II (hKAT II) enzyme (Homo sapiens, UniProt Q8N5Z0)
PROTOCOL_NOTES: KAT II Inhibition Spectra Assay
Format: biochemical
ASSAY_CONDITIONS: Table 5; hKAT II, decrease in OD370, 37° C., 15-20 h; read-out: KATII IC50
pIC50: −log10 of the molar value. Counter-ions that a name gives are not always drawn.
Label 0 (no) if pIC50 falls below 7; label 1 (yes) in every other case.

NC1Cc2ccc(C3CC3)cc2N(O)C1=O (centres unmarked) = 1 (yes)
N[C@H]1Cc2cc(Br)cc(C(F)(F)F)c2N(O)C1=O = 1 (yes)
COc1cccc2c1C[C@H](N)C(=O)N2O [Example 12, hydrochloride salt] = 0 (no)
NC1Cc2ccc(Cl)cc2N(O)C1=O (centres unmarked) = 1 (yes)
Cc1cc(Cl)cc2c1N(O)C(=O)C(N)C2 (centres unmarked) = 0 (no)
CC(C)Oc1ccc2c(c1)N(O)C(=O)[C@@H](N)C2 = 1 (yes)

Field: next compound
Given N[C@@H]1Cc2ccccc2N(O)C1=O , state whether its pIC50 is at least 7.
0 (no)

----------
This listing pairs molecules with measured IC50.
MEASURED_TARGET: human KAT II (hKAT II) enzyme (Homo sapiens, UniProt Q8N5Z0)
PROTOCOL_NOTES: KAT II Inhibition Spectra Assay
Type: biochemical
ASSAY_CONDITIONS: Table 5; hKAT II, decrease in OD370, 37° C., 15-20 h; read-out: KATII IC50
Counter-ions that a name gives are not always drawn.
Output spec: scalar in nM, unitless text.

Below, 4 molecules whose answers are already recorded.
NC1Cc2ccc(-c3ccc(F)c(F)c3)cc2N(O)C1=O (stereo not shown) [Example 44, trifluoroacetate salt] = 118
NC1Cc2ccc(-c3cccc(OC(F)(F)F)c3)cc2N(O)C1=O (stereo not shown) [Example 38, trifluoroacetate salt] = 133
NC1Cc2ccc(-c3ccccc3)cc2N(O)C1=O (stereo not shown) [Example 42, trifluoroacetate salt] = 101
COc1ccc(-c2ccc3c(c2)N(O)C(=O)C(N)C3)cc1C (stereo not shown) [Example 64, trifluoroacetate salt] = 141

Entry Cc1ccc(-c2ccc3c(c2)N(O)C(=O)C(N)C3)cc1 (stereo not shown) [Example 39, trifluoroacetate salt] ; IC50 = 136

Entry NC1Cc2cc(Cl)cc(C(F)(F)F)c2N(O)C1=O (stereo not shown) ; IC50 = 65.3

Entry CCOc1ccccc1-c1ccc2c(c1)N(O)C(=O)C(N)C2 (stereo not shown) [Example 57, trifluoroacetate salt] ; IC50 = 102
